measurement.protocol: Human HepG2 cell viability assay in 384 well format
Format: toxicity, cell-based
Parameters: dose 125 nL, time 70.5 hour; concentration not given beside the values
condition.notes: HepG2 cells, read-out: Inhibition
# reported cytotoxicity at 70.5 h; entries follow
All answers are understood in %, so give the number only.

Example results:
compound: O=C(Nc1cn[nH]c1)N(CCCO)C1CCc2ccccc21 (configuration not stated)
unit.abbrev: %
cytotoxicity at 70.5 h: -4.28
--
compound: Cc1cc(N2CCC3(CCC(=O)N(CC4CC4)C3)CC2)nc(N)n1
unit.abbrev: %
cytotoxicity at 70.5 h: -9.89
--
compound: CNC(=O)CN1CCC(NC(=O)CC(C)CCc2ccccc2)CC1 (configuration not stated)
unit.abbrev: %
cytotoxicity at 70.5 h: 12.1
--
compound: O=S(=O)(CCCNC1CCc2ncnn2C1)c1ccccc1 (configuration not stated)
unit.abbrev: %
cytotoxicity at 70.5 h: 23.5
--
compound: CS(=O)(=O)N1CCc2sc(C(=O)NCCc3ccccn3)cc21
unit.abbrev: %
cytotoxicity at 70.5 h: -10.9
--
compound: CC(C)CC(NC(=O)CN(C)c1cnccn1)c1cccs1 (configuration not stated)
unit.abbrev: %
cytotoxicity at 70.5 h: -6.01

Okay, next one:
Give the reported value of cytotoxicity at 70.5 h for this record: CS(=O)(=O)Nc1ccc([C@H]2OCC(=O)N[C@@H]2CO)cc1
2.21

----------
measurement.protocol: Human HepG2 cell viability assay in 384 well format
Format: toxicity, cell-based
Set-up: dose 125 nL, time 70.5 hour; concentration not given beside the values
condition.notes: HepG2 cells, read-out: Inhibition
readout.label: cytotoxicity at 70.5 h (%)
All answers are understood in %, so give the number only.

Example results:
molecule: O=C(NCc1cccnc1)NC1CCCN(c2ncccn2)C1 (stereo unspecified)
cytotoxicity at 70.5 h [%]: -10.3
--
molecule: COCCOc1ccccc1C(=O)N1CCCC(c2cc(C)[nH]n2)C1 (stereo unspecified)
cytotoxicity at 70.5 h [%]: 0.71
--
molecule: CCc1nnc(CN2CCN(C(=O)c3ccccn3)CC2)o1
cytotoxicity at 70.5 h [%]: -21.8
--
molecule: CSCc1ccc(CNC2CCCN(c3ccc(C)nn3)C2)o1 (stereo unspecified)
cytotoxicity at 70.5 h [%]: -9.42
--
molecule: Cc1cc(S(C)(=O)=O)c(C)c(S(=O)(=O)NCC2CCC2)c1
cytotoxicity at 70.5 h [%]: -9.88

Okay, next one:
Give the reported value of cytotoxicity at 70.5 h for this record: CCc1nnsc1C(=O)NCc1nnc2n1CCC2
-2.79

----------
measurement.protocol: Human HepG2 cell viability assay in 384 well format
Type: toxicity, cell-based
Parameters: dose 125 nL, time 70.5 hour; concentration not given beside the values
condition.notes: HepG2 cells, read-out: Inhibition
readout.label: cytotoxicity at 70.5 h
Give the value; after it, write the unit.

Example results:
compound: Cc1c(C(=O)N[C@H]2CN(CCS(C)(=O)=O)C[C@@H]2C2CC2)cnn1C
cytotoxicity at 70.5 h: -5.86%
//
compound: Cc1nn(C)c(Cl)c1C1CCCN1C(=O)c1ccc[nH]1 (stereo unspecified)
cytotoxicity at 70.5 h: 9.9%
//
compound: CC(NC(=O)CCn1cccn1)c1ccc(-n2ccnn2)cc1 (stereo unspecified)
cytotoxicity at 70.5 h: 15.4%
//
compound: CS(=O)(=O)N1CCOCC2(CN(Cc3ccsc3)CCO2)C1 (stereo unspecified)
cytotoxicity at 70.5 h: 0.00349%
//
compound: COc1cc(C2CC(=O)NCc3nc4sccn4c32)cc(OC)c1O (stereo unspecified)
cytotoxicity at 70.5 h: -13.6%

Okay, next one:
Give the reported value of cytotoxicity at 70.5 h for this record: Cc1cccc(C2(C(=O)NCC(C)CN3CCCC3=O)CC2)c1 (stereo unspecified)
-11.5%
